- assay_overview: In vitro microsomal incubation, rat liver microsomes
- test_conditions: Sprague-Dawley, rat, liver microsomes, pH 7.4
outcome_measure: half-life (h)
Numbers only, in h.

For the molecule shown here, Brc1cc(Br)c(Oc2nc(Oc3c(Br)cc(Br)cc3Br)nc(Oc3c(Br)cc(Br)cc3Br)n2)c(Br)c1 , give the reported half-life.
2.2

----------
- assay_overview: In vitro microsomal incubation, human liver microsomes
- test_conditions: human, liver microsomes, pH 7.4
outcome_measure: half-life (h)
Give bare numbers, in h.

For the compound shown here, Brc1cc(Br)c(Oc2nc(Oc3c(Br)cc(Br)cc3Br)nc(Oc3c(Br)cc(Br)cc3Br)n2)c(Br)c1 , give the reported half-life.
1.1
